Assayed System: human vasopressin V2 receptors (Homo sapiens, UniProt P30518)
Sequence (P30518 whole entry): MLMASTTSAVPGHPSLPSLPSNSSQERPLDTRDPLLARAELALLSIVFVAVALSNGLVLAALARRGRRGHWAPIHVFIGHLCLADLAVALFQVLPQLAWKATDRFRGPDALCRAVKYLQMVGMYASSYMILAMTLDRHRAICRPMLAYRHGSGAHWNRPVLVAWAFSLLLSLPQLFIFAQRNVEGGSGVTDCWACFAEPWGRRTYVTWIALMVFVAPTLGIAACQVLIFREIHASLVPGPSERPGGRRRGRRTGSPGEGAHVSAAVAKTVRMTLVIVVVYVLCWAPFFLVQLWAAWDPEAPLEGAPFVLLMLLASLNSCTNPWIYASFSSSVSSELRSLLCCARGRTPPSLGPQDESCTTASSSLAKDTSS
Assay Notes: affinity for vasopressin V2 receptors (method of Birnbaumer et al.)
Condition Details: read-out: IC50 with respect to the V2 receptors
pIC50: −log10 of the molar value.
Endpoint Label: pIC50

Give human vasopressin V2 receptors (Homo sapiens, UniProt P30518) pIC50 for COc1ccc(CN2C(=O)C(C)(c3ccccc3Cl)c3cc(Cl)ccc32)c(OC)c1 (racemic)
< 6.00

* * *

Target sequence: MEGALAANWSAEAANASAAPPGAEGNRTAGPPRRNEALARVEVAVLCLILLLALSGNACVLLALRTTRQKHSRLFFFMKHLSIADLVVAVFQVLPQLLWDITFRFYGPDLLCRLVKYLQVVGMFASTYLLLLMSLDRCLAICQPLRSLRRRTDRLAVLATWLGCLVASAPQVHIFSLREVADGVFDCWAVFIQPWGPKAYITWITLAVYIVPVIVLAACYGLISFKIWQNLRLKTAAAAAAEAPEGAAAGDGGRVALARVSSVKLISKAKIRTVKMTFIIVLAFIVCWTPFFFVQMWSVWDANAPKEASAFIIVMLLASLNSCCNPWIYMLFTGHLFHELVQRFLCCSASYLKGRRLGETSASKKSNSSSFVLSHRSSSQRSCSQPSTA
Endpoint Label: IC50

For the compound COc1ccc(CN2C(=O)C(C)(c3ccccc3Cl)c3cc(Cl)ccc32)c(OC)c1 (racemic) , what IC50 is on record?
< 50 nM

* * *

Assayed System: cells expressing human oxytocin receptors (Homo sapiens, UniProt P30559)
Assay Notes: measurement of intracellular calcium, agonist or antagonist nature
Condition Details: read-out: IC50 as antagonist
Endpoint Label: IC50 (nM)
Numbers only; they are read as nM.

For the compound COc1ccc(CN2C(=O)C(C)(c3ccccc3Cl)c3cc(Cl)ccc32)c(OC)c1 (single isomer, unassigned) [dextrorotatory enantiomer of Example 1] , what IC50 is on record?
3.2

* * *

Consider the following compounds; for each one, report its melting point.
Numbers only; they are read as °C.

For the compound CCN(CCc1ccccc1)C(=O)c1ccc(Cl)c(C2(C)C(=O)N(Cc3ccc(OC)cc3OC)c3ccc(Cl)cc32)c1 (stereo not shown) , what melting point is on record?
111.7

What would you report for COCCOCc1ccc(Cl)c(C2(C)C(=O)N(Cc3ccc(OC)cc3OC)c3ccc(Cl)cc32)c1 (stereo not shown) ?
114

What would you report for COc1ccc(CN2C(=O)C(C)(c3cc(C(=O)NC4CCCCC4)ccc3Cl)c3cc(Cl)ccc32)c(OC)c1 (stereo not shown) ?
129.8

What would you report for COCC(=O)Nc1ccc(Cl)c(C2(C)C(=O)N(Cc3ccc(OC)cc3OC)c3ccc(Cl)cc32)c1 (stereo not shown) ?
191

What would you report for CCNC(=O)c1ccc(Cl)c(C2(C)C(=O)N(Cc3ccc(OC)cc3OC)c3ccc(Cl)cc32)c1 (stereo not shown) (hydrate or solvate) ?
248

What would you report for CCN(C)C(=O)c1ccc(Cl)c(C2(C)C(=O)N(Cc3ccc(OC)cc3OC)c3ccc(Cl)cc32)c1 (stereo not shown) ?
166

What would you report for CCN(CCOC)C(=O)c1ccc(Cl)c(C2(C)C(=O)N(Cc3ccc(OC)cc3OC)c3ccc(Cl)cc32)c1 (stereo not shown) ?
86.3
